# assayRemarks: NCI Yeast Anticancer Drug Screen. Data for the cln2 rad14 strain (AID 165);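 also: 0% = growth equal to vehicle treated cultures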
# measurementParameters: S. cerevisiae cln2 rad14 strain, at 5.0 µM (retest, dose inferred, filed as 0.5), hits give high values
Compounds without any hit were thinned out: in the full panel of roughly 79,000, 15% have a hit.
Field: growth inhibition. Provide a value for each of the compounds that follow.
Numbers only, in %.

Here is how some compounds turned out for growth inhibition.
[
  {
    "compound": "C=CCOc1ccc(-c2ccccc2)cc1C(=O)NC",
    "growth inhibition (%)": -42
  },
  {
    "compound": "c1ccc(SSc2ccccn2)nc1",
    "growth inhibition (%)": 0
  },
  {
    "compound": "Cc1ccc(N=Nc2ncccc2O)cc1C",
    "growth inhibition (%)": -64
  },
  {
    "compound": "COc1ccc2ccnc(Cc3ccc(OCc4ccccc4)c(OC)c3)c2c1",
    "growth inhibition (%)": 12
  },
  {
    "compound": "N#CC(C(=O)CCCC(=O)Nc1ccc(Cl)cc1)c1ccccc1Cl (stereo unspecified)",
    "growth inhibition (%)": -2
  }
]

Would you mind listing growth inhibition for each of the following compounds?
1. CC1(c2cccs2)C(C#N)(C#N)C1(C#N)C#N
2. COc1cc(-c2ccc(-[n+]3nc(Cc4ccc5c(c4)OCO5)nn3-c3ccccc3)c(OC)c2)ccc1-[n+]1nc(Cc2ccc3c(c2)OCO3)nn1-c1ccccc1

Reply |
-5
2

Would you mind listing growth inhibition for each of the following compounds?
1. CC1C(c2ccc(Cl)cc2)c2cc3c(cc2OC1N1CCOCC1)OCO3 (stereo unspecified)
2. OC(c1ccccc1)(c1ccccc1)C1CCCCC1

Reply |
-27
-8

Would you mind listing growth inhibition for each of the following compounds?
1. N#CC(=C1C=CC(=NOC(=O)Nc2ccccc2)C=C1)c1ccccc1
2. [C-]#[N+]C(C)(c1ccccc1)c1ccccc1

Reply |
[1, -59]

====

# assayRemarks: NCI Yeast Anticancer Drug Screen. Data for the bub3 strain (AID 167)
# measurementParameters: S. cerevisiae bub3 mutant strain, at 50.0 µM (retest, dose inferred, filed as 5.0)
This is part of a sample that, as a whole, favours compounds with a hit. Of some 79,000 tested, about 15% had one in any assay. The source made the active and inactive calls. No stated cut-off is given here; in the data, active means growth inhibition above about 70%; inactive means the rest.
The categories you may choose from are active, inactive

[
  {
    "compound": "CC(=O)[O-].[Mn+3].[O-]c1ccc(Cl)cc1C=NCCN=Cc1cc(Cl)ccc1[O-]",
    "labelClass": "active"
  },
  {
    "compound": "CN(C)S(=O)(=O)c1cc(Cl)ccc1NN",
    "labelClass": "inactive"
  },
  {
    "compound": "O=C1c2cccc(O)c2C(=O)c2c(OC3OC(CO)C(O)C(O)C3O)cccc21 (stereo not given)",
    "labelClass": "inactive"
  },
  {
    "compound": "Clc1sc2ccccc2c1Cl",
    "labelClass": "inactive"
  },
  {
    "compound": "CCNc1ccccc1C",
    "labelClass": "active"
  }
]

Ask | Test call, this compound: "O=c1[nH]c2c([N+](=O)[O-])cc(Cl)cc2nc1/C=C(\O)c1ccc(F)cc1"
Reply | inactive

Ask | Test call, this compound: CCCCCCCCCCN(CCCCCCCCCC)CC(O)c1cc(-c2ccccc2)nc2ccccc12 (stereo not given)
Reply | inactive

Ask | Test call, this compound: "CCC(=O)Oc1c(Cl)cc(Cl)c(Cl)c1Cl"
Reply | inactive

====

# assayRemarks: NCI Yeast Anticancer Drug Screen. Data for the bub3 strain (AID 167)
# measurementParameters: S. cerevisiae bub3 mutant strain, at 50.0 µM (retest, dose inferred, filed as 5.0)
About 79,000 compounds went through this panel and 15% of them were active in at least one assay; those are over-represented in the sample as a whole. Active and inactive are the calls of the source. Cut-off read from the data, not from the text of the source: active = growth inhibition above about 70%; inactive = the rest.
The categories you may choose from are yes (active), no (inactive)

Ask | Test call, this compound: "CN(C)C(=S)/N=c1\ssc(=S)n1-c1ccccc1"
Reply | yes

Ask | Test call, this compound: "CCOC(=O)c1c[nH]cc1-c1cn(S(=O)(=O)c2ccccc2)cc1C"
Reply | no

Ask | Test call, this compound: "O=C(N/N=C/c1ccc2c(c1)OCO2)c1ccc([N+](=O)[O-])cc1"
Reply | no

====

# assayRemarks: NCI Yeast Anticancer Drug Screen. Data for the mlh1 rad18 strain (AID 175)
# measurementParameters: S. cerevisiae mlh1 rad18 strain growth inhibition; at 50.0 µM; hits give high values
About 79,000 compounds went through this panel and 15% of them were active in at least one assay; those are over-represented in the sample as a whole.
Field: growth inhibition. Provide a value for each of the molecules that follow.
Give bare numbers, in %.

Here is how some molecules turned out for growth inhibition.
[
  {
    "molecule": "C/C(=N/NC(=O)C[n+]1ccccc1)C(CN(CC(C)C)CC(C)C)C(=O)Nc1ccc(C)cc1C (stereo not drawn)",
    "readoutUnit": "%",
    "growth inhibition": 70.2
  },
  {
    "molecule": "O=[N+]([O-])c1ccc(N=C(Cl)C(Cl)(c2ccccc2)c2ccccc2)cc1",
    "readoutUnit": "%",
    "growth inhibition": 95.5
  },
  {
    "molecule": "O=C(OC1C2CCC2C2CC21)c1cc([N+](=O)[O-])cc([N+](=O)[O-])c1 (stereo not drawn)",
    "readoutUnit": "%",
    "growth inhibition": 58.9
  },
  {
    "molecule": "NCCc1ccc2oc3cc(=O)c4ccccc4c-3nc2c1",
    "readoutUnit": "%",
    "growth inhibition": 80.8
  }
]

Would you mind listing growth inhibition for each of the following molecules?
1. Cc1ccc(S(=O)(=O)N/N=c2\c(C)c(C3=NS(=O)(=O)c4cc(S(N)(=O)=O)c(Cl)cc4N3)oc3c(Cl)cc(Cl)cc23)cc1
2. Cc1ccccc1NC(=O)C(=O)C(C#N)c1c(Cl)cccc1Cl (stereo not drawn)

Reply |
1. 59.2
2. 25.9

Would you mind listing growth inhibition for each of the following molecules?
1. CCCNC(=O)N(CC(C)(C)C)S(=O)(=O)c1ccc(Cl)cc1
2. COc1ccc(NS(=O)(=O)c2ccc(F)cc2)cc1
3. CN(C)CCCNc1ccc(O)c2c1C(=O)c1ccccc1C2=O
4. O=[N+]([O-])c1ccccc1N=Nc1c(O)[nH]c2ccc(S(=O)(=O)O)cc12
5. Cc1cc2c(cc1S(=O)(=O)O)C1C(C3C2C2(Cl)C(Cl)=C(Cl)C3(Cl)C2(Cl)Cl)C2(Cl)C(Cl)=C(Cl)C1(Cl)C2(Cl)Cl (stereo not drawn)

Reply |
1. 36.2
2. 98.5
3. 89.6
4. 98.4
5. 79.2

Would you mind listing growth inhibition for each of the following molecules?
1. O=C(/C=C/C(=N\Nc1ccccc1)c1ccccc1)c1ccccc1
2. Cc1cc(C)c([O-])c(-[n+]2c(-c3ccccc3)cc(-c3ccccc3)cc2-c2ccccc2)c1
3. CCCCN(CCCC)CCNc1ccc(NS(=O)(=O)c2ccccc2)c2sc3ccccc3c(=O)c12
4. [O-][n+]1c2ccccc2cc2c1c1ccccc1n2O
5. CC(C)(C)c1ccc(-c2nc3ccccc3c(=O)o2)cc1

Reply |
1. 72
2. 89.7
3. 95.3
4. 13.9
5. 85

Would you mind listing growth inhibition for each of the following molecules?
1. Cc1cc(S(=O)(=O)Nc2n[nH]c(-c3ccccn3)n2)c(S)cc1Cl
2. CCCN1CSC(=S)N(CCC)C1
3. Cc1ncc(CO)c(C=NCCCCCCN=Cc2c(CO)cnc(C)c2[O-])c1[O-].[Cu+2]
4. CC1=Cc2cc3[n-]c(cc4nc(cc5[n-]c(cc1n2)cc5C)C(C)=C4CCC(=O)O)c(CCC(=O)O)c3C.[Pd+2]

Reply |
1. 56
2. 72.8
3. 25.4
4. 10.6

Would you mind listing growth inhibition for each of the following molecules?
1. CCCCCCCCCCCCCCCCOS(=O)(=O)O
2. CCN(CCN1C(=O)C2CCCCC2C1=O)c1ccc(N=O)c(C)c1 (stereo not drawn)
3. N#CSCCl
4. CC(Cc1ccccc1)NN1CCOC(c2ccccc2)C1C (stereo not drawn)
5. CC1=C(C(=O)Nc2ccc(Cl)c(Cl)c2)C(c2ccco2)C(C(=O)Nc2ccc(Cl)c(Cl)c2)=C(C)N1
6. COC(=O)/C(=C/c1ccc(/C=C(/C(=O)O)c2ccc(OC)cc2)o1)c1ccccc1
7. CN(C)c1ccc(C2CC(C)(N3CCCC3)Oc3cc4c(cc32)OCO4)cc1 (stereo not drawn)

Reply |
1. 99
2. 97.5
3. 92
4. 73
5. 87.6
6. 30.8
7. 33.5

Would you mind listing growth inhibition for each of the following molecules?
1. COc1ccc(C(=O)Nc2ccccc2OC)cc1
2. S=C(Nc1ccccn1)c1ccccn1
3. O=C(Nc1cc(Cl)ccc1Cl)Nc1ccc(Cl)cc1C(=O)c1ccccc1
4. COC1=CC(=O)c2ncccc2C1=O
5. [O-]c1c2cc(-[n+]3c(-c4ccccc4)cc(-c4ccccc4)cc3-c3ccccc3)cc1CO[C@@H](c1ccccc1)[C@H](c1ccccc1)OCc1cccc(n1)CO[C@@H](c1ccccc1)[C@H](c1ccccc1)OC2
6. C=CCOC(=O)OCCCO
7. COC(C)(C)[C@@H]1CCCN1C1=C(C)C(=O)OC1
8. CCOC(=O)c1ccc(-n2c(C)nc3ccc(Br)cc3c2=O)cc1

Reply |
[9.5, 51.4, 88.2, 95.1, 86.7, 95.5, 75.8, 74.8]

Would you mind listing growth inhibition for each of the following molecules?
1. BrCC(Br)Cc1ccc2c(c1)OCO2 (stereo not drawn)
2. Nc1cccc2c1[nH]c(=O)c1ccccc12
3. COC(=O)CC1c2cc(OC)c3cccc(OC)c3c2CCC1(C)C(=O)OC (stereo not drawn)
4. CC(C)c1ccc2c(c1)CCC1C(C)(CNC(=O)S)CCCC21C.[Zn+2] (stereo not drawn)
5. O=C1OC(c2ccc3c(c2)OCO3)Sc2ccccc21 (stereo not drawn)

Reply |
1: 56.9; 2: 91.2; 3: 13.7; 4: -10.6; 5: 25.8

Would you mind listing growth inhibition for each of the following molecules?
1. Clc1cc(Cl)c2c(c1)nc(Cl)c1cc(Cl)ccc12
2. COc1ccc(SSc2ccc(OC)n[n+]2[O-])[n+]([O-])n1
3. COC(=O)c1ccc(C)cc1C1CN=NC12Cc1cccc(C)c1C2=O (stereo not drawn)

Reply |
98.6
99.5
2.55
